- Assay System: ScSte2 + ScBar1 (Saccharomyces cerevisiae)
- Construct: we cloned codon-optimized open reading frames (ORFs) of all 5 proteases and GPCRs; pTDH3-ScSTE2, two pCCW12-ScBAR1 cassettes, genome-integrated)
- Sequence (D6VTK4 whole entry): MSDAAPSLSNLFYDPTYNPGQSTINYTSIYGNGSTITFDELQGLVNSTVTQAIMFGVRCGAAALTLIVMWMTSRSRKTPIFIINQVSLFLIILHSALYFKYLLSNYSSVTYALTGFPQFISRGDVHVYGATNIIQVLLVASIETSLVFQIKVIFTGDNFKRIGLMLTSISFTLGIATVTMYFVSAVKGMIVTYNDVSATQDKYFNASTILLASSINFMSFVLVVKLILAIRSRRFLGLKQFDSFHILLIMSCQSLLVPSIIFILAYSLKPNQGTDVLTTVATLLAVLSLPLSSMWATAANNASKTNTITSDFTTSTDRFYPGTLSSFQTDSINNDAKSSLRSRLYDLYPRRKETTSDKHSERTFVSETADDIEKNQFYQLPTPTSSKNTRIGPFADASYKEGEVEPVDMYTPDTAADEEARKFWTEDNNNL
- Assay Name: Dose-response activation of ScSte2 biosensor strain secreting ScBar1 (two copies, yBB01), fluorescent readout
- Condition: SEM
pEC50: −log10 of the molar value.
// reported pEC50 per item
Assay Readout: pEC50

1) CSCC[C@H](NC(=O)[C@@H]1CCCN1C(=O)[C@H](CCC(N)=O)NC(=O)[C@H](C)NC(=O)[C@@H]1CCCN1C(=O)[C@H](CCCCN)NC(=O)[C@H](CC(C)C)NC(=O)[C@H](CCC(N)=O)NC(=O)[C@H](CC(C)C)NC(=O)[C@H](Cc1c[nH]c2ccccc12)NC(=O)[C@H](Cc1c[nH]cn1)NC(=O)[C@@H](N)Cc1c[nH]c2ccccc12)C(=O)N[C@@H](Cc1ccc(O)cc1)C(=O)O [ScPep9A] :: 4.80
2) CSCC[C@H](NC(=O)[C@@H]1CCCN1C(=O)[C@H](CCC(N)=O)NC(=O)CNC(=O)[C@H](C)NC(=O)[C@H](CCCCN)NC(=O)[C@H](CC(C)C)NC(=O)[C@H](CCC(N)=O)NC(=O)[C@H](CC(C)C)NC(=O)[C@H](Cc1c[nH]c2ccccc12)NC(=O)[C@H](Cc1c[nH]cn1)NC(=O)[C@@H](N)Cc1c[nH]c2ccccc12)C(=O)N[C@@H](Cc1ccc(O)cc1)C(=O)O [ScPep8A] :: 5.60
3) CSCC[C@H](NC(=O)[C@@H]1CCCN1C(=O)[C@H](CCC(N)=O)NC(=O)CNC(=O)[C@@H]1CCCN1C(=O)[C@H](CCCCN)NC(=O)[C@H](CC(C)C)NC(=O)[C@H](CCC(N)=O)NC(=O)[C@H](C)NC(=O)[C@H](Cc1c[nH]c2ccccc12)NC(=O)[C@H](Cc1c[nH]cn1)NC(=O)[C@@H](N)Cc1c[nH]c2ccccc12)C(=O)N[C@@H](Cc1ccc(O)cc1)C(=O)O [ScPep4A] :: 5.40
